assay overview: soluble on expression in E. coli; label from the status in PepcDB or PDB records
property label: soluble on expression in E. coli

MTVAQLIDIDAKKTKTSNEVYQTSTMLALLDGIYDGVISFEDLKKHGDFGIGTFDQLDGEMIAFDNEFYHLRSDGSAEKVEPEETTPFATVTFFEKEMSYTVERPMNREEVEALLHELMPSKNLFYGIRMDGTFREVRTRTVPRQEKPYTPLVEVTKSQPIFSFENTEGTLAGFWTPDYAQGIGVAGFHLHYIDDERSGGGHVFDYVIENCTIQICQKAHMHLALPETADFMAAALSRENLEDNIATAEGAE | not soluble
MTITQKGDHHSILAKLRHRNIILAKLEKAYKIPSSNIKNIWTQLNEKIEHTIADFIRLLAKQMFINRYLKSCIRISKAEKKRDTVSLVHHLFYNNAA | not soluble

----------
assay overview: soluble on expression in E. coli; label from the status in PepcDB or PDB records
property label: soluble on expression in E. coli

Before answering, review these 10 worked examples.
MGHHHHHHSHMTKIIPVASGKGGVGKTSFVANVGYKLSSLGKTVILVDLDLGGSNLHTCLGVKNKGVGIGSFINKKSKSFSDLVCKTSYDKLYLIPGDALYTGTANLPFSIKKKIIESIQKDLIADFIFLDLGSGTSYNTIDFYLASYSGVIVTIPETPSILNAYSFLKNALYRLLYLGFP | not soluble
QQEVYGMMPRDETDSKTASASPWKSARLMVHTVATFNSIKER | soluble
MGSDKIHHHHHHVAISVAGGVRPGKIIEIEHRLYQQLILGKHKASPTLLDDLDLELEADANKLDVEREAILARLMKQIKAKEVFEAVSSQLHETVNNAIEHQLASPELVLAKSEINESQILLLELLLAKNLDATRLRPLISNLSWLCRDLTNMVNSPSFRARRPQSSDVRVTDIKLVMNYIGIENLRTIIPYFCLRNWLPSANAKLLWTTRKLWRYSIVSGIAANALAQLHNTDSALVYSSALLNQLGTSVVLSLSARLFDQTWGAWIREASSSRDKEVYDAVIATEFPAKAVFEQVLSHGHKLNWQLLELLKFEASPLTGLLKELDLTLSYRELSPQAALVARANCYAKVVLLEEMRQIDPQEKRLMFDYYELTEQEVLRLKAQNYRKLDLL | not soluble
MSLAKPFDAYISVTVKARGNGTVHLGPIHKRWSRLDMGQFLLGGSRFVDSQRQEFIYYFHPGDMKPPLNVYFSGYRTAEGFEGYYMMKRMNAPFLLIGDPRVEGGSFYIGSSEYEQGIINVIDETLEKLNFKSHELILSGLSMGSFGALYYGAQLNPQAIIVGKPLVNIGTIAEHMRLLRPEEFGTALDVLVSNEGDTSQASIQALNQKFWQTFQKKSLSQTVFAIAYMQHDDYDPHAFQELLPVLTAHQARVMNRSIPGRHNDDSEGHHHHHH | not soluble
MEGISKPMERYDSVVFAGMKQDGTIEFIKVYALNEDLAITILDQFLRENNLHPSDFVVIQRGLEDIKGKDIISTRTEEDLSAMLARLGLRLVSNGVLHTRGAEKIYQITAISKSLIERLQGEDKDKVSTIIKEEISIDFSNLKLPEKYMKKLLLLSLMEDTFILNRAELNVPEVIKRAVKGVVSIPRLIERDNIIIKVFDEELHTVQGSYLDRVIITPPVVHWDAHIDELDSFSFQEVEENVYEPPLFVKAMKGFLVLTEPPRDLVVMLLKLKRRGEVKVSLKGRQIRIPLNFTLVVDTKYPERYSGLKFPIRINLPPFDDETFAQMLSMVLGTKVPQDLVAMFPEEYKTFLGVEILSNLWKKLRKRGRKSEIELLKEMATIVTGGII | soluble
EDPFQPEIKVRCVCGNSLETDSMIQVIWDELTAFIPCEDPRCHVWQHVGCVILPDKPMDGNPPLPESFYCEICRLT | soluble
MADANATICYLNGLSLHTINEVEKILLALPKKGDRCEVQMSKPLNRCIGRSTGDVIASRSVQIRDEPKPLSLSPQKSEQEIKKSSKSKKLSEDCCLRSIKERVEIVETRNGSDAFGAKKLQYKVLTDQVRVSPIVSCNGVTLELDVEVTIPDRDEKKKLKLEIDRTLSVLILSIRNH | not soluble
MSHLYDPTTQYYTGEYPKQKQPAPGVQAKMTPVPDCGEKSYVGSGRLKDRKALVTGGDSGIGRAAAIAYAREGADVAINYLPAEEEDAQQVKALIEECGRKAVLLPGDLSDESFARSLVHKAREALGGLDILALVAGKQTAIPEIKDLTSEQFQQTFAVNVFALFWITQEAIPLLPKGASIITTSSIQAYQPSPHLLDYAATKAAILNYSRGLAKQVAEKGIRVNIVAPGPIWTALQISGGQTQDKIPQFGQQTPMKRAGQPAELAPVYVYLASQESSYVTAEVHGVCGGEHLG | not soluble
MGSSHHHHHHGKTIFVIVPTNEEQVAFLEALAKQDELNFDWQNPPTEPGQPVVILIPSDMVEWFLEMLKAKGIPFTVYVEEGGSENLYFQGGGGGGPKREEQMYMHIRKVYGDNIPEELLQRAKRQREAQDALTLTNMLRTPTPGQTSNALQNDLDPRALIELKSWNGH | soluble
MEIIIVGGFLGSGKTTTLNHLITDALDHNLKTALIINEFGKMSVDSQLIHPTIPISEIVEGCICCAMKSNVSQQLHEIYLEHQPDLVFIECSGIAEPLAVVDACLTPVLAPITTIRSMLGIIDAKLYEKIETYPRDIQALFYEQLSYCSTLFVNKIDIADFNQVARLLRHLEVINRDANIQVGQWGELALNTLLNVKHLDAKQRGTLHHAINHQLIDTPRSQTKADFIERLTQLPQQVYRVKGFVRFTDSKLIHLVQYAEGEIELTPIQFKSDVPLYLVVIGKHLDAIELDLLEHHHHHH | not soluble

soluble on expression in E. coli in this record for `MSLMKQNPILITGGTGTVGSRIASRLIKLGYRVRIASRKKGALADAEYVYFNWKYASSFTPALEQVKQIYLVAPVGVFDPAPYVLPFLKEAKRLGAKRVVMQSASVVSENGPVFGALHQAVREFPEWTVLRPSYFMQNFINVQHRMSIQTEGRITTASGEGKLGFIDADDIAETAVRALIDDVPHQTHHILTGPEALSYAEAAEIIGAAAGRRVEHVSISRSELQHKMEAGGLPADYAHFMAKLDEAISHGAEHRVTDTVKRVTGKEPRSLSEFAAAHAAYWTSFWTEEGGSHHHHHH` : soluble

soluble on expression in E. coli in this record for `MGSDKIHHHHHHKAVPLASINGEWNIIEVNGSKVTPGESRTLPFITFDTATGRVSGNSGCNRMMGSFDVNAKPGSMELKGMASTRMMCPDMTTERNVLGALAQVKGYKKAGKDKMFLCNESNRPVVVLEKKEADVKLSVLNGEWKIKEVNGEAITSGMEKQPFIAFDVKKKTLHGNAGCNLINGGFETSTTNAKSISFPGVASTMMACPDMEVEGKILKAMNEVKSFDKLSGGGIGLYDANNALVIVLEK` : not soluble
